Test system: surinam grass
Assay: Test B pre/postemergence surinam grass
Type: in vivo, Brachiaria decumbens
Conditions: Preemergence, Rate 500 g/ha; scale of 0 to 10 where 0 is no effect and 10 is complete control
measurementType: Plant response rating, B. signalgrass

compound="Cc1cccc(C)c1-n1c(=O)on(C(=O)N(C(C)C)C2C=CCCC2)c1=O (stereo not drawn) [Compound 273]" studytarget="surinam grass" measurementtype="Plant response rating, B. signalgrass" resultnumber=3
compound="CC(C)N(C(=O)n1oc(=O)n(C[Si](C)(C)C)c1=O)c1ccc(F)cc1 [Compound 294]" studytarget="surinam grass" measurementtype="Plant response rating, B. signalgrass" resultnumber=9
compound="CC(C)N(C(=O)n1oc(=O)n([C@H](C)c2ccccc2)c1=O)c1ccc(F)cc1F [Compound 238]" studytarget="surinam grass" measurementtype="Plant response rating, B. signalgrass" resultnumber=0

###

Tested on: crabgrass
Experiment: Test B pre/postemergence crabgrass
Format: in vivo, Digitaria sanguinalis
Conditions: Preemergence, Rate 250 g/ha; scale 0 to 10 (0 no effect, 10 complete control)
Lab note: compare Plant response rating, Crabgrass with 4, writing t if less and f if equal or more.

compound=CC(C)N(C(=O)n1oc(=O)n(C(C)C)c1=O)c1ccc(Br)cc1 labelvalue=f
compound=CCCCn1c(=O)on(C(=O)N(c2ccc(F)cc2F)C(C)C)c1=O labelvalue=f
compound="COC(=O)C(C)n1c(=O)on(C(=O)N(c2ccc(F)cc2)C(C)C)c1=O (stereo not drawn)" labelvalue=t
compound="C#CC(C=C(C)C)n1c(=O)on(C(=O)N(c2ccccc2)C(C)C)c1=O (stereo not drawn)" labelvalue=f

###

Tested on: rape
Experiment: Test B pre/postemergence rape
Assay type: in vivo, Brassica napus
Conditions: Postemergence, Rate 500 g/ha; scale of 0 to 10 where 0 is no effect and 10 is complete control
Protocol: […] At the same time, these crop and weed species were also treated with postemergence applications of test chemicals formulated in the same manner. […] Treated plants and controls were maintained in a greenhouse for twelve to sixteen days, after which all species were compared to controls and visually evaluated. […]
measurementType: Plant response rating, Rape

compound=CC(C)N(C(=O)n1oc(=O)n(CC(=O)N(C)C)c1=O)c1ccc(F)cc1 measurementtype="Plant response rating, Rape" resultnumber=0
compound="CCOP(=O)(OCC)C(C)n1c(=O)on(C(=O)N(c2ccc(F)cc2)C(C)C)c1=O (centres unmarked)" measurementtype="Plant response rating, Rape" resultnumber=0
compound="COC(=O)C(C)n1c(=O)on(C(=O)N(c2ccc(F)cc2)C(C)C)c1=O (centres unmarked)" measurementtype="Plant response rating, Rape" resultnumber=0
compound="COC(C)n1c(=O)on(C(=O)N(c2ccc(Cl)cc2)C(C)C)c1=O (centres unmarked)" measurementtype="Plant response rating, Rape" resultnumber=0
compound=CCCCn1c(=O)on(C(=O)N(c2ccc(F)cc2F)C(C)C)c1=O measurementtype="Plant response rating, Rape" resultnumber=9

###

System: pitted morningglory
Assay: Test D pitted morningglory
Assay type: in vivo, Ipomoea lacunosa
Settings: Rate 500 g/ha; Preemergence; 0 to 100 scale
Excerpt: […] Test chemicals were formulated in a non-phytotoxic solvent mixture which included a surfactant and applied preemergence to the surface of the pot containing seeds in a sandy loam soil. Untreated control pots and treated pots were placed in the greenhouse for growth and visually evaluated for injury 14 to 21 days after herbicide application. […]
measurementType: Plant response rating, P. morninglory

compound="CC(C)N(C(=O)n1oc(=O)n(C2CC2)c1=O)c1ccc(F)cc1 [Compound 242]" measurementtype="Plant response rating, P. morninglory" resultnumber=100
compound="CC(C)N(C(=O)n1oc(=O)n(Cc2ccccc2)c1=O)c1ccc(F)cc1 [Compound 78]" measurementtype="Plant response rating, P. morninglory" resultnumber=0
compound="COc1ccccc1-n1c(=O)on(C(=O)N(c2ccc(F)cc2)C(C)C)c1=O [Compound 30]" measurementtype="Plant response rating, P. morninglory" resultnumber=0
compound="CC(C)N(C(=O)n1oc(=O)n(N(C)C)c1=O)c1ccc(F)cc1 [Compound 170]" measurementtype="Plant response rating, P. morninglory" resultnumber=85
